Test system: rat oligodendrocyte progenitor cells
experiment: Promotive activity of rat oligodendrocyte progenitor cell differentiation-2 (immunostaining of MBP)
Format: cell-based
particulars: Test 4; vitamin D derivative 2 μM, T3 30 nM; 4 days
propertyLabel: Mean (number of MBP-positive cells/number of Hoechst33342-positive cells)
Give bare numbers.

Field: example entries. Status: answers known.
C=C1/C(=C\C=C2/CCC[C@]3(C)[C@@H]([C@H](C)CN4CCOC[C@H]4C)CC[C@@H]23)C[C@@H](O)C[C@H]1O [Compound I005] :: 0.43
C=C1/C(=C\C=C2/CCC[C@]3(C)[C@@H]([C@H](C)CN4CCOCC4(C)C)CC[C@@H]23)C[C@@H](O)C[C@H]1O [Compound I006] :: 0.51
C=C1/C(=C\C=C2/CCC[C@]3(C)[C@@H]([C@H](C)CN4CCOCC4(C)C)CC[C@@H]23)C[C@@H](O)C[C@@H]1O [Compound F006] :: 0.44

Give Mean (number of MBP-positive cells/number of Hoechst33342-positive cells) for each listed item.
1. C[C@H](CN1CCOCC1(C)C)[C@H]1CC[C@H]2/C(=C/C=C3C[C@@H](O)C[C@H](O)C3)CCC[C@]12C [Compound G006]
2. C=C1/C(=C\C=C2/CCC[C@]3(C)[C@@H]([C@H](C)CN4CCOC[C@@H]4C)CC[C@@H]23)C[C@@H](O)C[C@H]1O [Compound I004]
3. C[C@H](CN1CCOCC12CC2)[C@H]1CC[C@H]2/C(=C/C=C3C[C@@H](O)C[C@H](O)C3)CCC[C@]12C [Compound G007]

0.50
0.44
0.34
